biological target: His-tagged Bcl-2 (Homo sapiens, UniProt P10415); construct: gene BCL2; commercial His-tagged Bcl-2 protein (Abcam); tag kept; assay: competitive ELISA, His-tagged Bcl-2 vs immobilised biotinylated Bim peptide; format: binding; conditions: read-out: ELISA IC50 (μM) ^1
Sequence (P10415 whole entry): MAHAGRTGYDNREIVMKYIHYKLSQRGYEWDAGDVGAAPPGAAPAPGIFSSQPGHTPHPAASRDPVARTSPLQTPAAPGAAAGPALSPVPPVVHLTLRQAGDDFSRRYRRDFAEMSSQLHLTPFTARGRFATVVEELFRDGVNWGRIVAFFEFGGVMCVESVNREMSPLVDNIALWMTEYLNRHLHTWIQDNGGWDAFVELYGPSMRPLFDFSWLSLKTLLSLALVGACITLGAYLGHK
ATTRIBUTE MEASURED: IC50 (µM)
// note: answer is a bare numeric in µM

Q: Recorded IC50 of O=[N+]([O-])c1ccc(Nc2nnc(-c3cc(-c4ccc(Br)cc4)nc4ccccc34)o2)cc1 , please.
Result: 14.5
